format: physicochemical; details: 1 wt % powder pesticide in 99 wt % Water, no wetting agent
MEASURED_PARAMETER: Comment: suitability

>  <COMPOUND>
O=C1C2CC=CCC2C(=O)N1SC(Cl)(Cl)Cl (stereo not drawn)

>  <READOUT_VALUE>
Suitable

$$$$
>  <COMPOUND>
CON=C(C(=O)OC)c1ccccc1CON=C(C)c1cccc(C(F)(F)F)c1

>  <READOUT_VALUE>
Suitable

$$$$
>  <COMPOUND>
CN(C)C(=O)Nc1ccc(Cl)c(Cl)c1

>  <READOUT_VALUE>
Suitable

$$$$
>  <COMPOUND>
CCCCC(C#N)(Cn1cncn1)c1ccc(Cl)cc1 (stereo not drawn)

>  <READOUT_VALUE>
Suitable

$$$$
>  <COMPOUND>
CCNc1nc(Cl)nc(NC(C)C)n1

>  <READOUT_VALUE>
Suitable

$$$$
>  <COMPOUND>
O=[N+]([O-])NC1=NCCN1Cc1ccc(Cl)nc1

>  <READOUT_VALUE>
Suitable

$$$$

----------
assay: Quick screening of crystal growth potential in fertilizer concentrates and water, solid pesticides containing a carboxylic acid group (Example 2); format: physicochemical; details: powder pesticide (glyphosate acid 2, 2,4-D acid 1.3, others 1 wt %) in 10-34-0, no wetting agent
MEASURED_PARAMETER: Comment: suitability

>  <COMPOUND>
Nc1c(Cl)c(Cl)nc(C(=O)O)c1Cl [Picloram]

>  <MEASURED_PARAMETER>
Comment: suitability

>  <READOUT_VALUE>
Suitable

$$$$
>  <COMPOUND>
O=C(O)c1nc(Cl)ccc1Cl [Clopyralid]

>  <MEASURED_PARAMETER>
Comment: suitability

>  <READOUT_VALUE>
Suitable

$$$$

----------
type: physicochemical; conditions: 1 wt % powder pesticide, 98 wt % URAN 32, 1 wt % Witcolate D-510
MEASURED_PARAMETER: Comment: powder sank or floated

>  <COMPOUND>
CN(C)C(=O)Nc1ccc(Cl)c(Cl)c1

>  <MEASURED_PARAMETER>
Comment: powder sank or floated

>  <READOUT_VALUE>
sank

$$$$
>  <COMPOUND>
Cc1c(COC(=O)[C@@H]2[C@H](/C=C(\Cl)C(F)(F)F)C2(C)C)cccc1-c1ccccc1 (racemic)

>  <MEASURED_PARAMETER>
Comment: powder sank or floated

>  <READOUT_VALUE>
floated

$$$$
>  <COMPOUND>
CCNc1nc(Cl)nc(NC(C)C)n1

>  <MEASURED_PARAMETER>
Comment: powder sank or floated

>  <READOUT_VALUE>
floated

$$$$
>  <COMPOUND>
CCCCC(C#N)(Cn1cncn1)c1ccc(Cl)cc1 (stereo not shown)

>  <MEASURED_PARAMETER>
Comment: powder sank or floated

>  <READOUT_VALUE>
floated

$$$$

----------
type: physicochemical; settings: 1 wt % powder pesticide, 98 wt % 40% AMS, 1 wt % Witcolate D-510
MEASURED_PARAMETER: Comment: powder sank or floated

>  <COMPOUND>
CN(C)C(=O)Nc1ccc(Cl)c(Cl)c1 [Diuron]

>  <READOUT_VALUE>
sank

$$$$
>  <COMPOUND>
CCCCC(C#N)(Cn1cncn1)c1ccc(Cl)cc1 (centres unmarked) [Myclobutanil]

>  <READOUT_VALUE>
floated

$$$$
>  <COMPOUND>
Cc1c(COC(=O)[C@@H]2[C@H](/C=C(\Cl)C(F)(F)F)C2(C)C)cccc1-c1ccccc1 (racemic) [Bifenthrin]

>  <READOUT_VALUE>
sank

$$$$
>  <COMPOUND>
CCNc1nc(Cl)nc(NC(C)C)n1 [Atrazine]

>  <READOUT_VALUE>
floated

$$$$
>  <COMPOUND>
O=[N+]([O-])NC1=NCCN1Cc1ccc(Cl)nc1 [Imidaclopid]

>  <READOUT_VALUE>
sank

$$$$

----------
type: physicochemical; conditions: 1 wt % powder pesticide in 99 wt % 10-34-0, no wetting agent
MEASURED_PARAMETER: Comment: powder sank or floated

>  <COMPOUND>
O=C1C2CC=CCC2C(=O)N1SC(Cl)(Cl)Cl (centres unmarked) [Captan]

>  <MEASURED_PARAMETER>
Comment: powder sank or floated

>  <READOUT_VALUE>
0-40 °C Powder sank.

$$$$
>  <COMPOUND>
CCCCC(C#N)(Cn1cncn1)c1ccc(Cl)cc1 (centres unmarked) [Myclobutanil]

>  <MEASURED_PARAMETER>
Comment: powder sank or floated

>  <READOUT_VALUE>
floated

$$$$
>  <COMPOUND>
CCNc1nc(Cl)nc(NC(C)C)n1 [Atrazine]

>  <MEASURED_PARAMETER>
Comment: powder sank or floated

>  <READOUT_VALUE>
floated

$$$$
>  <COMPOUND>
CON=C(C(=O)OC)c1ccccc1CON=C(C)c1cccc(C(F)(F)F)c1 [Trifloxystrobin]

>  <MEASURED_PARAMETER>
Comment: powder sank or floated

>  <READOUT_VALUE>
0-40 °C Powder sank.

$$$$

----------
assay: Quick screening of crystal growth potential in fertilizer concentrates and water, solid pesticides containing a carboxylic acid group (Example 2); assay type: physicochemical; settings: powder pesticide (glyphosate acid 2, 2,4-D acid 1.3, others 1 wt %) in URAN 32, no wetting agent; 0° C., 1 day unless otherwise specified
MEASURED_PARAMETER: Comment: dissolution

>  <COMPOUND>
COc1c(Cl)ccc(Cl)c1C(=O)O [Dicamba acid]

>  <READOUT_VALUE>
Dissolved

$$$$
>  <COMPOUND>
O=C(O)c1nc(Cl)ccc1Cl [Clopyralid]

>  <READOUT_VALUE>
Dissolved

$$$$

----------
type: physicochemical; settings: 1 wt % powder pesticide in 99 wt % URAN 32, no wetting agent
MEASURED_PARAMETER: Comment: powder sank or floated

>  <COMPOUND>
CON=C(C(=O)OC)c1ccccc1CON=C(C)c1cccc(C(F)(F)F)c1

>  <READOUT_VALUE>
0-40 °C Powder sank.

$$$$
>  <COMPOUND>
CCNc1nc(Cl)nc(NC(C)C)n1

>  <READOUT_VALUE>
floated

$$$$
>  <COMPOUND>
CN(C)C(=O)Nc1ccc(Cl)c(Cl)c1

>  <READOUT_VALUE>
sank

$$$$
>  <COMPOUND>
CCCCC(C#N)(Cn1cncn1)c1ccc(Cl)cc1 (centres unmarked)

>  <READOUT_VALUE>
floated

$$$$
>  <COMPOUND>
O=C1C2CC=CCC2C(=O)N1SC(Cl)(Cl)Cl (centres unmarked)

>  <READOUT_VALUE>
0-40 °C Powder sank.

$$$$

----------
Type: physicochemical
Settings: 1 wt % powder pesticide in 99 wt % 40% AMS, no wetting agent
Source text: Crystal formation in a suspension concentrate is a complex phenomenon. […] The concentrations of the solid pesticides used in this example were low (at a typical ready-to-apply concentration range). If a solid pesticide forms crystals in such a low concentration, it is not suitable for a ready-to-apply pesticide suspension and mostly likely will not be suitable for a more concentrated suspension in fertilizer. […]
MEASURED_PARAMETER: Comment: suitability

>  <MOLECULE>
CON=C(C(=O)OC)c1ccccc1CON=C(C)c1cccc(C(F)(F)F)c1

>  <MEASURED_PARAMETER>
Comment: suitability

>  <READOUT_VALUE>
Suitable

$$$$
>  <MOLECULE>
CN(C)C(=O)Nc1ccc(Cl)c(Cl)c1

>  <MEASURED_PARAMETER>
Comment: suitability

>  <READOUT_VALUE>
Suitable

$$$$
>  <MOLECULE>
CCNc1nc(Cl)nc(NC(C)C)n1

>  <MEASURED_PARAMETER>
Comment: suitability

>  <READOUT_VALUE>
Suitable

$$$$
>  <MOLECULE>
CCCCC(C#N)(Cn1cncn1)c1ccc(Cl)cc1 (stereo not drawn)

>  <MEASURED_PARAMETER>
Comment: suitability

>  <READOUT_VALUE>
Suitable

$$$$
>  <MOLECULE>
O=C1C2CC=CCC2C(=O)N1SC(Cl)(Cl)Cl (stereo not drawn)

>  <MEASURED_PARAMETER>
Comment: suitability

>  <READOUT_VALUE>
Suitable

$$$$
>  <MOLECULE>
O=[N+]([O-])NC1=NCCN1Cc1ccc(Cl)nc1

>  <MEASURED_PARAMETER>
Comment: suitability

>  <READOUT_VALUE>
Suitable

$$$$
